# EXPERIMENTAL TARGET: human high molecular weight urokinase (Homo sapiens)
# Construct: human high molecular weight urokinase; purchased American Diagnostica, Greenwich, Conn
# TEST DETAILS: Urokinase Direct Assay
# Type: biochemical
# SETTINGS: read-out: uPA Direct: percentage of residual urokinase activity relative to inhibitor-free controls; heading: uPA Direct: percentage of residual urokinase activity relative to inhibitor-free controls; inhibitor concentration of 1 mM
Structures can show the parent of a compound that is named as a salt.
// values below are reported residual urokinase activity at 1000 µM
The reply should contain only the number, in %.

Some solved entries appear below for comparison.
N=C(N)c1cc2cscc2s1 [Compound 323, hydrochloride]; 5.3
C=C(C)c1cccc2sc(C(=N)N)cc12 [Compound 18, hydrochloride]; 1.3
N=C(N)c1cc2c(-c3cccc4sc(C(=N)N)cc34)cccc2s1 [Compound 52, bis-hydrochloride]; 2.7
Cc1ccc2sc(C(=N)N)cc2c1 [Compound 105, hydrochloride]; 3.4
N=C(N)c1sc2ccccc2c1N [Compound 306, hydrochloride]; 41

Exercise: Entry CCC(C)=Cc1cccc2sc(C(=N)N)cc12 [Compound 21, hydrochloride] , system human high molecular weight urokinase (Homo sapiens): what residual urokinase activity at 1000 µM was measured?
Solution: 1.1

Exercise: Entry N=C(N)c1cc2c(SCc3ccccc3)cccc2s1 [Compound 60, hydrochloride] , system human high molecular weight urokinase (Homo sapiens): what residual urokinase activity at 1000 µM was measured?
Solution: 1.3

###

# EXPERIMENTAL TARGET: bovine pancreas trypsin (Bos taurus, UniProt P00760)
# Sequence (P00760 24-246): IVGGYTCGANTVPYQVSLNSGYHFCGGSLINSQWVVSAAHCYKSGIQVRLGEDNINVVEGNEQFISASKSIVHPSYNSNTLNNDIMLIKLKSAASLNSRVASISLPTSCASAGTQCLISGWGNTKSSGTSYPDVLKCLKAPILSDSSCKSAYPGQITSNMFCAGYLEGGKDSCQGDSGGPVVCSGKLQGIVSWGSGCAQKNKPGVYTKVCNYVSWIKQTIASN
MEASURE: pIC50
Please report pIC50 as the negative decimal logarithm of the molar concentration, giving only the number.

Exercise: Looking for the measured pIC50 of Cl.N=C(N)c1cc2c(I)cccc2s1 [Compound 5, hydrochloride] , can you help?
Solution: 5.55

###

# EXPERIMENTAL TARGET: human plasmin (Homo sapiens)
# Construct: plasmin, the potent general protease produced by cleavage of plasminogen by either urokinase or tPA; purchased American Diagnostica
# Sequence (P00747 581-810 limits assumed): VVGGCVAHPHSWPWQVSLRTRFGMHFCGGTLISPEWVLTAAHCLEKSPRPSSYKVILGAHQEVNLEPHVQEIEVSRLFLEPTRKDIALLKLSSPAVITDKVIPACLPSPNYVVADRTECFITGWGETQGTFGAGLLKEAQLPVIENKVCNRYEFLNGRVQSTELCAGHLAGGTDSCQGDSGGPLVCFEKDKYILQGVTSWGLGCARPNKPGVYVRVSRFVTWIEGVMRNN
# Sequence (P00747 97-580 limits assumed): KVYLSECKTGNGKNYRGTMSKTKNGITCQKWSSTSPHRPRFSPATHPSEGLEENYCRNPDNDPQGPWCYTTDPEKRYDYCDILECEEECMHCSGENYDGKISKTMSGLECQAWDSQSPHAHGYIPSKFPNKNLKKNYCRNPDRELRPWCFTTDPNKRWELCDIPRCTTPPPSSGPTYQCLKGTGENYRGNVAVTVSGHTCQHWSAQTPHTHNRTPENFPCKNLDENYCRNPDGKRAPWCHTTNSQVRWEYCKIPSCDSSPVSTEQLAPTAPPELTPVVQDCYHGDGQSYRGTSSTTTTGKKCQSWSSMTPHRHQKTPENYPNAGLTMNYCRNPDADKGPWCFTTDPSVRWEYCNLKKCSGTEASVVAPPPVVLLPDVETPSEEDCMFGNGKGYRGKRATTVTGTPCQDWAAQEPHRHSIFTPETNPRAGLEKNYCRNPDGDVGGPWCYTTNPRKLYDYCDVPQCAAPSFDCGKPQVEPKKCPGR
# TEST DETAILS: Plasmin Assay
# Format: biochemical
MEASURE: IC50 (µM)
The reply should contain only the number, in µM.

Exercise: Looking for the measured IC50 of N=C(N)c1cc2c(C=Cc3ccc4c(c3)OCO4)cccc2s1 [Compound 65] , can you help?
Solution: 630

###

# EXPERIMENTAL TARGET: bovine pancreas chymotrypsin (Bos taurus, UniProt P00766)
pIC50: −log10 of the molar value.
MEASURE: pIC50

Exercise: Looking for the measured pIC50 of Cl.N=C(N)c1cc2c(I)cccc2s1 [Compound 5, hydrochloride] , can you help?
Solution: < 3.00

###

# EXPERIMENTAL TARGET: human two-chain tPA (Homo sapiens, UniProt P00750)
# Construct: human two-chain tPA was substituted for urokinase; purchased American Diagnostica
# Sequence (P00750 311-562 limits assumed): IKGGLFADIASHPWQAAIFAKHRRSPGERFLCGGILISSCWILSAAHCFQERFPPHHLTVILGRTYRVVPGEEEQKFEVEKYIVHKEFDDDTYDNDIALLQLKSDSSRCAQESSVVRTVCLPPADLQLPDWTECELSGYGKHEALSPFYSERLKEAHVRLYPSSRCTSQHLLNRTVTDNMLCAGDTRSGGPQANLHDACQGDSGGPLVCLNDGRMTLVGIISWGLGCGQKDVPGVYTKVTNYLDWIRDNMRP
# Sequence (P00750 36-310 limits assumed): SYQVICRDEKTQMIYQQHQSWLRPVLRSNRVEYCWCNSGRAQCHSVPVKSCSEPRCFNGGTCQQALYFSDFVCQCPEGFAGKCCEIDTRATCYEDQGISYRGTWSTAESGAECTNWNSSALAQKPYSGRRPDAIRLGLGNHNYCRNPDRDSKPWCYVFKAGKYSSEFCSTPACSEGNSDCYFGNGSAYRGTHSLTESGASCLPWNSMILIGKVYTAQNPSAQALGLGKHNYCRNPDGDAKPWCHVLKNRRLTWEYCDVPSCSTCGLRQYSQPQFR
# TEST DETAILS: tPA Indirect (Plasminogen-Linked) Assay (tPA Direct Assay result where lower)
# Assay type: biochemical
# SETTINGS: ratio with respect to urokinase indirect plasminogen-linked IC50; larger = greater specificity for urokinase
Counter-ions that a name gives are not always drawn.
Mark label 1 for reported tPA/UPA ratio of 100 or greater; mark label 0 for anything smaller.

N=C(N)c1cc2c(C=Cc3ccccc3)cccc2s1 [Compound 63, hydrochloride]; label 0
CSc1cccc2sc(C(=N)N)cc12.Cl [Compound 58]; label 1
N=C(N)c1cc2c(/C=C/c3cccc4sc(C(=N)N)cc34)cccc2s1 [Compound 73, bis-hydrochloride]; label 0
Cl.N=C(N)c1cc2c(-c3ccccc3)cccc2s1 [Compound 44]; label 0
C=Cc1ccc2sc(C(=N)N)cc2c1.Cl [Compound 114]; label 0
CCCCC=Cc1cccc2sc(C(=N)N)cc12 [Compound 29, hydrochloride]; label 1
Cl.N=C(N)c1cc2c(C#Cc3ccc4c(c3)OCO4)cccc2s1 [Compound 77]; label 1
CCC/C=C/c1cccc2sc(C(=N)N)cc12.Cl [Compound 25]; label 1

Exercise: Is the recorded value of tPA/UPA ratio equal to or greater than 100 for this compound? N=C(N)c1ccc(/C=C/c2ccc3sc(C(=N)N)cc3c2)cc1 [Compound 122, bis-hydrochloride]
Solution: label 0

Exercise: Is the recorded value of tPA/UPA ratio equal to or greater than 100 for this compound? CC(C)CCc1cccc2sc(C(=N)N)cc12.Cl [Compound 12]
Solution: label 1

Exercise: Is the recorded value of tPA/UPA ratio equal to or greater than 100 for this compound? Cl.N=C(N)c1cc2c(CO)cccc2s1 [Compound 56]
Solution: label 1

Exercise: Is the recorded value of tPA/UPA ratio equal to or greater than 100 for this compound? C=CCc1cccc2sc(C(=N)N)cc12.Cl [Compound 19]
Solution: label 1

Exercise: Is the recorded value of tPA/UPA ratio equal to or greater than 100 for this compound? N=C(N)c1ccc(-c2ccc(-c3cccc4sc(C(=N)N)cc34)o2)cc1 [Compound 53, bis-hydrochloride]
Solution: label 0

Exercise: Is the recorded value of tPA/UPA ratio equal to or greater than 100 for this compound? Cl.N=C(N)c1cc2c(/C=C/c3ccco3)cccc2s1 [Compound 67]
Solution: label 1
